Assay: Ussing chamber drug transport across pediatric intestinal tissue
Details: human
Reported Metric: efflux ratio
Form: value (number only, do not type unit).

Data request: Which efflux ratio is reported for this compound? CC(C)c1nc(N(C)S(C)(=O)=O)nc(-c2ccc(F)cc2)c1/C=C/[C@@H](O)C[C@@H](O)CC(=O)O
Data returned: 1.3
